For each of the binders below, state its kon.
Target: T1, Human IL-23 (human, UniProt P29460 23-328; Q9NPF7 20-189)
T1 construct: Heterodimer of IL-12p40 covalently linked to IL-23p19, purchased (Ebiosciences or RnD Systems); also called hIL-23; rhIL23
T1 sequence 1: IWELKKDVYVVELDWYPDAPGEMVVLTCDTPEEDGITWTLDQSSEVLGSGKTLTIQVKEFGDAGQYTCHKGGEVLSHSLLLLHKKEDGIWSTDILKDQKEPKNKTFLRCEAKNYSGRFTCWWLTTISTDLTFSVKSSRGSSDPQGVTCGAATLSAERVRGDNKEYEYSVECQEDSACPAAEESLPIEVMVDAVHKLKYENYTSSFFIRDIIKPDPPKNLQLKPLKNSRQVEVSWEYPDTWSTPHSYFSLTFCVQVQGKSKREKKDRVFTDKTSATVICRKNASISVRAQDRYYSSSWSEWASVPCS
T1 sequence 2: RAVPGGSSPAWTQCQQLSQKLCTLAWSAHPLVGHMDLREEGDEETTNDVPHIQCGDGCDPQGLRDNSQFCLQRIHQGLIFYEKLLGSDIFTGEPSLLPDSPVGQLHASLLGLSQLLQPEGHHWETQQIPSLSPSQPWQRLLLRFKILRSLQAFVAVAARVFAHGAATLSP
Assay: SPR (Biacore 3000), antibody captured on Protein A, IL-23 as analyte, 1:1 Langmuir fit
Numbers only, in M⁻¹ s⁻¹.

Some solved cases for reference:
# binder, kon, M⁻¹ s⁻¹
records = [
    ("1-4 (antibody, human IgG1, kappa, V domains shown, Humanized form of E11E7; also called humanized antibody 1-4) VH: EVQLQQWGAGLLKPSETLSLTCAVYGGSFSSYNVHWIRQPPGKGLEWIGVIWTGGSTDYNSVLKSRVTISRDTSKNQFSLKLSSVTAADTAVYYCARDKYGLFPGYFDYWGQGTLVTVSS VL: EIVLTQSPATLSLSPGERATLSCKPSQSLLSSGNRKNYLAWYQQKPGQAPRLLIYYASTRQSGIPDRFSGSGSGTDFTLTISRLEPEDFAVYYCLQHFNYPWTFGGGTKVEIKR", 348000),
    ("8-22 (antibody, human IgG1, kappa, V domains shown, Humanized form of E11E7; also called humanized antibody 8-22) VH: QVQLQESGPGLVKPSETLSLTCTVSGFSLISYNVHWIRQPPGKGLEWIGVIWTGGSTDYNPSLKSRVTISRDTSKNQFSLKLSSVTAADTAVYYCARDKYGLFPGYFDYWGQGTLVTVSS VL: DIVMTQSPDSLAVSLGERATINCKPSQSLLSSGNRKNYLAWYQQKPGQPPKLLIYYASTRQSGVPDRFSGSGSGTDFTLTISSLQAEDVAVYYCLQHFNYPWTFGQGTKLEIKR", 468000),
]

-- ask Quick check: kon of 20-4 (antibody, human IgG1, kappa, V domains shown, Humanized form of E11E7; also called humanized antibody 20-4) VH: EVQLQQWGAGLLKPSETLSLTCAVYGFSLISYNVHWIRQPPGKGLEWIGVIWTGGSTDYNSVLKSRVTISVDTSKNQFSLKLSSVTAADTAVYYCARDKYGLFPGYFDYWGQGTLVTVSS VL: EIVLTQSPATLSLSPGERATLSCKPSQSLLSSGNRKNYLAWYQQKPGQAPRLLIYYASTRQSGIPDRFSGSGSGTDFTLTISRLEPEDFAVYYCLQHFNYPWTFGGGTKVEIKR ?
-- reply 429000
